Molecular target: Dual specificity tyrosine-phosphorylation-regulated kinase 1A (Homo sapiens) (UniProt Q13627)
Assay: Assay for Inhibitors of Dual-Specificity Tyrosine-(Y)-Phosphorylation Regulated Kinase 1A (Kinase-Glo assay): round 2 SAR
Conditions: recombinant DYRK1A, Kinase-Glo ATP depletion luminescence; series mostly up to 76.9 µM
Records with an inconclusive call do not appear. Calls of active or inactive are those of the source. Calls come from the whole dose curve; as a rule, active = well fitted inhibition curve with a large enough effect; inconclusive = small, poorly fitted or top-dose-only effect; inactive = flat fitted curve, though single readings scatter.
The categories you may choose from are 1 (yes) for active, 0 (no) for inactive

[[record]]
molecule = "Clc1ccccc1-c1ccc2ncnc(NCc3ccc4c(c3)OCO4)c2c1"
discrete_label = "0 (no)"

[[record]]
molecule = "Cc1csc(CNc2ncnc3ccc(-c4cccnc4)cc23)c1"
discrete_label = "1 (yes)"

[[record]]
molecule = "CC(=O)c1ccc(-c2ccc3ncnc(NCc4ccc(C)o4)c3c2)o1"
discrete_label = "1 (yes)"

[[record]]
molecule = "CCNC(=O)c1ccc(-c2ccc3ncnc(NCCc4cnc[nH]4)c3c2)o1"
discrete_label = "1 (yes)"

[[record]]
molecule = "CCNC(=O)c1ccc(-c2ccc3ncnc(NCc4nccs4)c3c2)o1"
discrete_label = "1 (yes)"


Just curious, what result did Cc1cccc(-c2ccc3ncnc(NCc4cccs4)c3c2)c1 get here?
1 (yes)

Just curious, what result did Cc1csc(CNc2ncnc3ccc(-c4ccc(C(C)O)o4)cc23)n1 (stereo unspecified) get here?
1 (yes)

Just curious, what result did Cc1nc(CCN(C)c2ncnc3ccc(-c4ccc5c(c4)OCO5)cc23)cs1 get here?
1 (yes)

---

Biological target: Dual specificity tyrosine-phosphorylation-regulated kinase 1A (Homo sapiens) (UniProt Q13627)
Assay: Assay for Inhibitors of Dual-Specificity Tyrosine-(Y)-Phosphorylation Regulated Kinase 1A (Kinase-Glo assay): round 2 SAR
Details: recombinant DYRK1A, Kinase-Glo ATP depletion luminescence; series mostly up to 76.9 µM
Text: NIH Molecular Libraries Probe Production Centers Network [MLPCN] NIH Chemical Genomics Center [NCGC] MLPCN Grant: 1R03MH084827-01 PI Name: Tom Misteli NCGC Assay Overview: The CMGC group of protein kinases which includes CDK-like kinases (Clk) and Dyks are essential kinases found in all eukaryotes. […]
Records with an inconclusive call do not appear. Active and inactive are the calls of the source. Calls follow the shape of the dose curve; as a rule, active = well fitted inhibition curve with a large enough effect; inconclusive = small, poorly fitted or top-dose-only effect; inactive = flat fitted curve, though single readings scatter.
The categories you may choose from are active, inactive

Just curious, what result did Cc1ccc(CNc2ncnc3ccc(-c4ccc(C(=O)O)o4)cc23)o1 get here?
active

Just curious, what result did Clc1cccc(-c2ccc3ncnc(NCc4cccs4)c3c2)c1 get here?
active

Just curious, what result did Cc1ccc(CNc2ncnc3cc(-c4ccc5c(c4)OCO5)ccc23)o1 get here?
active

Just curious, what result did CN(CCc1ccco1)c1ncnc2ccc(-c3ccc4c(c3)OCO4)cc12 get here?
active

Just curious, what result did Cc1nc(CCNc2ncnc3ccc(-c4ccc5c(c4)OCO5)cc23)cs1 get here?
active

Just curious, what result did Cn1ccc2cc(-c3ccc4ncnc(NCc5cccc(F)c5)c4c3)ccc21 get here?
inactive

Just curious, what result did C[C@@H](O)c1ccc(-c2ccc3ncnc(NCc4cccs4)c3c2)o1 get here?
active

---

Biological target: Dual specificity tyrosine-phosphorylation-regulated kinase 1A (Homo sapiens)
Assay: Assay for Inhibitors of Dual-Specificity Tyrosine-(Y)-Phosphorylation Regulated Kinase 1A (Kinase-Glo assay): round 2 SAR
Settings: recombinant DYRK1A, Kinase-Glo ATP depletion luminescence; series mostly up to 76.9 µM
Records with an inconclusive call do not appear. Active and inactive are the calls of the source. Calls come from the whole dose curve; as a rule, active = well fitted inhibition curve with a large enough effect; inconclusive = small, poorly fitted or top-dose-only effect; inactive = flat fitted curve, though single readings scatter.
The categories you may choose from are 1 (active), 0 (inactive)

Study these solved cases before continuing.
[[record]]
smiles_notation = "Clc1cccc(-c2ccc3ncnc(NCc4cccnc4)c3c2)c1"
tested_system = "Dual specificity tyrosine-phosphorylation-regulated kinase 1A (Homo sapiens)"
discrete_label = 1

[[record]]
smiles_notation = "Cc1csc(CNc2ncnc3cc(-c4ccc5c(c4)OCO5)ccc23)n1"
tested_system = "Dual specificity tyrosine-phosphorylation-regulated kinase 1A (Homo sapiens)"
discrete_label = 1

[[record]]
smiles_notation = "CCCNc1ncnc2ccc(-c3ccc4c(c3)OCO4)cc12"
tested_system = "Dual specificity tyrosine-phosphorylation-regulated kinase 1A (Homo sapiens)"
discrete_label = 1

[[record]]
smiles_notation = "c1nc(N2CCOCC2)c2cc(-c3ccc4c(c3)OCO4)ccc2n1"
tested_system = "Dual specificity tyrosine-phosphorylation-regulated kinase 1A (Homo sapiens)"
discrete_label = 1


Just curious, what result did Cc1ccc(CN(C)c2ncnc3ccc(-c4ccc(CO)o4)cc23)o1 get here?
1

Just curious, what result did c1cncc(CNc2ncnc3ccc(-c4ccc5c(c4)OCO5)cc23)c1 get here?
1

Just curious, what result did Cn1ccc2cc(-c3ccc4ncnc(NCc5ccc6c(c5)OCO6)c4c3)ccc21 get here?
0

Just curious, what result did COc1cccc(-c2ccc3ncnc(NCc4ccc5c(c4)OCO5)c3c2)c1 get here?
1

Origin of values: PubChem BioAssay AID493206
